dCas9 with SSAP activity (normalized) values by entry
Test system: gene editing with dCas9
Experiment: Screen of 322 new SSAP proteins, gene editing activity with dCas9 (Table 5)
Format: cell-based
Conditions: normalized
Reported Property: dCas9 with SSAP activity (normalized)

| Molecule | Reported Property | Observed Value |
| --- | --- | --- |
| SSAP_81: SEQ ID NO: 250 (protein) TDVKQELERKVGKQDSTAVRLTKNMSIPDMIKALEPEIRRALPAVLTPERFLRMALSAVNNTPKLAECTPMSFIAAMMNAAQLGLEPNTPLGQAYLIPYKNKNQLECQFQIGYKGIIDLAYRTGQMQMIQAHAVHEFDDFEYEYGLNPKLIHRPGDGNRGEITYFYGLFKLVNGGFGFEVMNREAMEAFAQQYSQSYGSQYSPWVKNFEDMAKKTVIKKALKYGPVKAEFQKAISMDETIKTEIAVDMTEVQNEESE | dCas9 with SSAP activity (normalized) | −0.367 |
| SSAP_218: SEQ ID NO: 387; Streptococcus lutetiensis (protein, listed as Streptococcus lutetiensis) ANQLQMSHKDFFNRPAVKNKFSEVVSGKSDQFITSLLSVVNNNKLLSKADNNSILNAAMKAATLNLPIEPSLGSAYIVPFKGQAQFQLGYKGLIELAQRSGQYKSINAGVVYKAQFKSYDPLFETLDLDFNQPQDEVIGYFACFELLNGFRKITYWTREEVYNHGKRFSKSFNNGPWKTDFDAMAKKTLLKSIIGTYGPKSVDMQEAITDDNKTEYEKAEPIDVTPQEENLTDLIGETPQEELPIANPETGEIQEEQTALFNQLGDLTDD | dCas9 with SSAP activity (normalized) | −0.443 |
| SSAP_274: SEQ ID NO: 443; Clostridium liquoris (protein, listed as Clostridium liquoris) TTASELKNQLATRKETGVGSAGNTVKGLLESPAIKKRFEEVLKQRAPQYMSSIVNLVNGDANLKKCDQMSVIASCMVAATLDLPVDKNLGYAWVVPYGNKAQFQLGYKGYVQLALRTGQYKSINVIEIHEGELIEWNPLTEELRIDFEKKKSDAIIGYAGYFELINGFRKSTYWTKEQITKHKNKFSKSDFGWKKDFDAMAKKTVLRNMLSKWGILSIEMQNAYTADQETIKSEVLETGNIKENVEYVEADFDVDFEGTPFEEGVTNE | dCas9 with SSAP activity (normalized) | −0.328 |
